These records show log10 IC50 for cAMP and cAMP-inhibited cGMP 3',5'-cyclic phosphodiesterase 10A (Homo sapiens).
measurement kind: log10 IC50 (log10 of the value in µM)

{"columns": ["compound", "log10 IC50"],
 "data": [
  ["O=C(Nc1cccc(N2CCCCC2=O)c1)c1nc(C2CC2)cnc1Nc1cncnc1 [Roche-Dataset for PDE10A, Compound 724]", -1.34],
  ["Cc1cc(C)n2nc(CCc3cncc(N4CCCC4)n3)nc2n1", -0.51],
  ["Cc1nc2ccccc2nc1OCc1csc(N2CCOCC2)n1 [Roche-Dataset for PDE10A, Compound 951]", 0.37],
  ["O=C(NCC1(c2ccccc2)CCCCC1)c1nc(C2CC2)cnc1Nc1cncnc1 [Roche-Dataset for PDE10A, Compound 804]", -0.14],
  ["Cc1cc(C)n2nc(CCc3nc(N4CCCC4)nn3C3CC3)nc2n1 [Roche-Dataset for PDE10A, Compound 475]", -2.09],
  ["O=C1c2ccccc2C(=O)N1CCc1csc(-c2ccccc2)n1 [Roche-Dataset for PDE10A, Compound 177]", 0.40],
  ["CCOC(=O)c1cnn(C)c1C(=O)Nc1ccn2nc(C(C)C)nc2c1 [Roche-Dataset for PDE10A, Compound 761]", 0.16]
]}
